- Experimental system: recombinant human GST-Syk (Homo sapiens)
- Construct: purchased Carna Biosciences 08-176
- Test name: Homogeneous Time-Resolved Fluorescence (HTRF) assay for the recombinant human Syk enzyme
- Assay type: biochemical
- Measurement conditions: recombinant human GST-Syk 5 pM, ATP 25 μM, 10-dose titration 10 μM to 0.508 nM; read-out: rhSYK Activity IC50
Assay metric: IC50 (nM)

Worked cases, answers included:
INSERT INTO assay_data (compound, experimental_system, reported_value) VALUES
  ('Cc1cc(Nc2cc(C(F)(F)F)ccn2)nc(-c2cn(CC(=O)N3CCC(C(=O)O)CC3)nn2)c1 (racemic)', 'recombinant human GST-Syk (Homo sapiens)', 24.5),
  ('Cc1cc(Nc2nccc(C(F)(F)F)n2)cc(-c2cn(CC3CCO3)nn2)c1 (racemic)', 'recombinant human GST-Syk (Homo sapiens)', 504);

P = COC(=O)C1CCC(n2cc(-c3cc(C)cc(Nc4cc(C(F)(F)F)ccn4)n3)nn2)c2ccccc21 (racemic)
Q = Cc1cc(Nc2ncc(Cl)c(C)n2)cc(-c2cn(CC(C)(O)C(C)(C)O)nn2)c1 (stereo not shown) [Example 21.30]
R = Cc1cc(Nc2nccc(C(F)(F)F)n2)cc(-n2cc([C@]3(O)CC[C@@H](O)CC3)nn2)c1
S = Cc1cc(Nc2cc(C(F)(F)F)ccn2)nc(-c2cn(CC(O)C(=O)O)nn2)c1 (stereo not shown) [Example 14]
T = Cc1cc(Nc2cc(C(F)(F)F)ccn2)nc(-c2cn([C@@H](C)C(N)=O)nn2)c1
Lookup: Order the 5 compounds from highest to lowest IC50. Please respond with the labels ordered as the question requires.
Found: P, Q, S, R, T
(P: 525 nM, Q: 88.5 nM, S: 44.9 nM, R: 30 nM, T: 14.2 nM)

====

- Experimental system: recombinant human GST-Syk (Homo sapiens, UniProt P43405)
- Construct: purchased Carna Biosciences 08-176
- Test name: Homogeneous Time-Resolved Fluorescence (HTRF) assay for the recombinant human Syk enzyme
- Format: biochemical
- Measurement conditions: recombinant human GST-Syk 5 pM, ATP 25 μM, 10-dose titration 10 μM to 0.508 nM; read-out: rhSYK Activity IC50
Assay metric: IC50 (µM)

INSERT INTO measurements (compound, assay_metric, reported_value) VALUES
  ('Cc1cc(Nc2nccc(C(F)F)n2)cc(-c2cn(C3CCCC(C)(O)C3O)nn2)c1 (single isomer, unassigned) [Example 29.2]', 'IC50', 0.0307);

A = Cc1cc(Nc2cc(C(F)(F)F)ccn2)nc(-c2cn(CC(O)c3ccc(C(N)=O)cc3)nn2)c1 (stereo not shown) [Example 1.10]
B = Cc1cc(Nc2cc(C(F)(F)F)ccn2)nc(-c2cn(CC(=O)O)nn2)c1 [Example 5.88]
Lookup: // returns A or B , whichever has the lower IC50 Provide the label of your selected option as the answer.
Found: A
(A: 0.0063 µM, B: 0.0529 µM)

====

- Experimental system: recombinant human GST-Syk (Homo sapiens)
- Construct: purchased Carna Biosciences 08-176
- Test name: Homogeneous Time-Resolved Fluorescence (HTRF) assay for the recombinant human Syk enzyme
- Assay type: biochemical
- Measurement conditions: recombinant human GST-Syk 5 pM, ATP 25 μM, 10-dose titration 10 μM to 0.508 nM; read-out: rhSYK Activity IC50
Assay metric: IC50 (nM)

INSERT INTO assay_data (compound, assay_metric, reported_value) VALUES
  ('Cc1cc(Nc2cc(C(F)(F)F)ccn2)nc(-c2cn(C3CCC(C(N)=O)C(C)(C)C3)nn2)c1 (single isomer, unassigned) [Example 1.4]', 'IC50', 3.8),
  ('Cc1cc(Nc2cc(C(F)(F)F)ccn2)nc(-c2cn(Cc3c[nH]cn3)nn2)c1', 'IC50', 2.5),
  ('Cc1cc(Nc2cc(C(F)(F)F)ccn2)nc(-c2cn(C(C)C(O)CC#N)nn2)c1 (centres unmarked) [Example 4.3]', 'IC50', 4.6);

P = Cc1cc(Nc2cc(C(F)(F)F)ccn2)nc(-c2cn(C/C=C/c3ccncc3)nn2)c1
Q = Cc1cc(Nc2nccc(C(F)(F)F)n2)cc(-n2cc(C3(O)CCC(C(=O)O)C(C)(C)C3)nn2)c1 (centres unmarked) [Example 15.2]
R = Cc1cc(Nc2cc(C(F)(F)F)ccn2)nc(-c2cn(C(C)C(=O)NCc3c(-c4ccccc4)noc3C)nn2)c1 (centres unmarked)
Lookup: Order the 3 compounds from highest to lowest IC50. Please respond with the labels ordered as the question requires.
Found: R, P, Q
